System: T1, UNK ZnF1-6 (called full-length) (human, UniProt Q9C0B0 30-357)
T1 sequence: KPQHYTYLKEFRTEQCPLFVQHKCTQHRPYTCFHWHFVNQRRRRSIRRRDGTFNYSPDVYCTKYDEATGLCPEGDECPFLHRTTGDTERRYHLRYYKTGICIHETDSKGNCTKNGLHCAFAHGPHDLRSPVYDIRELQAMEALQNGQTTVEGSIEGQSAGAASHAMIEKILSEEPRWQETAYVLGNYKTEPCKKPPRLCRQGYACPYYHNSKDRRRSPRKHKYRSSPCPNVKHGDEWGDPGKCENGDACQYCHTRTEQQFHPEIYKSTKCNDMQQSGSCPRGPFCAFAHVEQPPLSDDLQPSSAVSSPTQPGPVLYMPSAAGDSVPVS
Experiment summary: nsRBNS (natural sequence RNA bind-n-seq); RBNS binding buffer (assumed for nsRBNS): 25 mM Tris pH 7.5, 150 mM KCl, 3 mM MgCl2, 0.01% Triton X-100, 500 ug/ml BSA, 20 U/ml SUPERase-In, 4 C; UNK is unkempt and MSI1 is Musashi-1; names of the RNAs are library labels; protein concentration not given here; high values mean tight binding
In all, about 5,800 sequences were measured (“enrichment r”: median about 0.68, highest 2% from about 11 on). This is one part of a sample in which the highest values are shown more often than they occur.
Could you please report measured binding signal for the items listed next?
Write the number in enrichment R without appending the unit.

Asked: Specify measured binding signal for ENSG00000066933:stop:overlap|stop_codon|ENSG00000066933|stop_codon|NA|stop_codon (ssRNA) RNA: GGGAGUUCUACAGUCCGACGAUCAUAGCUCAGAGAAUUUGAAUAUGGAGUCUGAAUAUGCUAUCUCUGAGAAAUCAGAAGCUUAGCCCUUAGCUCCCUGAAGACAGCUGGCAAGUCUGAACCUUCCAGCAAGUUGCGAAAGCACAACAGAGGAUUGAGCAUCA .
Given back: 15.4

Asked: Specify measured binding signal for chr8:65707876:65707977:+|CDS|ENSG00000066855|unk|FALSE|unique (ssRNA) RNA: GGGAGUUCUACAGUCCGACGAUCCCUGCUGCCCUCAUAGCAGAGGCUCUGAAAAAGAAAUUUGCUUAUCGGUAUCGAAGUGAUAGCCAAGAUGAAGUUGAAAAAGGAAUUCCAAAGUCUGAAUCAGAGGCCACCUCAGAGAGACAACAGAGGAUUGAGCAUCA .
Given back: 0.424

Entry source: paper PMC12136788
